Parameter cell viability: see the listing below.
- Tested on: NOMO1
- procedure_text: cell viability relative to DMSO control; higher = less cytotoxic
- cond: RPMI 5 mM glucose + 10% FBS; 48 h; 0.569 µM
assay_readout: cell viability (%)

{"columns": ["compound", "endpoint_value"],
 "data": [
  ["CN1CC(=O)N2[C@H](c3ccc4c(c3)OCO4)c3[nH]c4ccccc4c3C[C@@H]2C1=O", 97],
  ["CN1\\C=N/C2=CC=C(NC3=CC(=CC=C3C)NC(=O)C4=CC(=CC=C4)C(C)(C)C#N)C=C2C1=O", 81.2],
  ["O=C(O)c1cccnc1Nc1cccc(C(F)(F)F)c1", 124],
  ["Nc1ncnc2c1ncn2[C@@H]1O[C@H](CO)C[C@H]1O", 88],
  ["CC1=CC(=CC(=C1C\\C2=N\\CCN2)C)C(C)(C)C", 98.4],
  ["O=C(c1ccccc1)c1ccc2n1CCC2C(=O)O (centres undefined)", 120],
  ["C[C@]12CC[C@H]3[C@@H](CCC4=CC(=O)CC[C@@H]43)[C@@H]1CC[C@@H]2OC(=O)CCc1ccccc1", 112],
  ["CC(N[C@H]1CCCC[C@@H]1NC(=O)c1ccc(Cl)cc1)c1cccc2ccccc12 (some centres undefined)", 114],
  ["CCCCOc1c(C(=O)c2c(F)cc(C)cc2F)cnc2[nH]ncc12", 95.6]
]}

----------
- Tested on: SEM cells
- procedure_text: AUC of viability dose-response curve (% viability x log10 dose units); higher = less sensitive
- cond: HPLM + 10% dialyzed FBS; 48 h
Simple rule here: AUC of viability dose-response curve less than 400 is YES, otherwise NO.

{"columns": ["molecule", "measured_on", "assigned_class"],
 "data": [
  ["CC(C)OC(=O)[C@H](C)N[P@](=O)(OC[C@H]1O[C@@H](N2\\C=C/C(=O)NC2=O)[C@](C)(F)[C@@H]1O)OC3=CC=CC=C3", "SEM cells", "YES"],
  ["CNC(=O)c1ccc(Nc2cc(Nc3ccccc3[S+](=O)([O-])C(C)C)c3cc[nH]c3n2)nc1", "SEM cells", "YES"],
  ["Cc1ccc([S+](=O)([O-])OCC(=O)Nc2ccc(C(=O)O)c(O)c2)cc1", "SEM cells", "NO"],
  ["CC[C@H]1OC(=O)[C@H](C)C(=O)[C@H](C)[C@@H](O[C@H]2O[C@H](C)C[C@H](N(C)C)[C@H]2O)[C@](C)(OC)C[C@@H](C)C(=O)[C@H](C)[C@H]2N(CCCCn3cnc(-c4cccnc4)c3)C(=O)O[C@]12C", "SEM cells", "NO"],
  ["CC(C(=O)O)c1ccc2c(c1)CC(=O)c1ccccc1S2 (configuration not stated)", "SEM cells", "NO"],
  ["C[C@@H]1CCO[C@H]2CN\\3/C=C(/C(=O)NCC4=C(F)C=C(F)C=C4)C(=O)\\C(=C3C(=O)N12)O", "SEM cells", "NO"],
  ["Nc1c2c(nc3ccccc13)CCCC2", "SEM cells", "NO"],
  ["CN1CC(=O)N2[C@H](c3ccc4c(c3)OCO4)c3[nH]c4ccccc4c3C[C@@H]2C1=O", "SEM cells", "NO"],
  ["CC1=CC(=CC(=C1C\\C2=N\\CCN2)C)C(C)(C)C", "SEM cells", "NO"],
  ["COC1=C(OCCCN2CCOCC2)C=C3N=CC=C(OC4=CC=C(C=C4F)\\C5=C\\N=C(\\NC6=CC=C(F)C=C6)N(C)C5=O)C3=C1", "SEM cells", "YES"],
  ["CC(N[C@H]1CCCC[C@@H]1NC(=O)c1ccc(Cl)cc1)c1cccc2ccccc12 (some centres not stated)", "SEM cells", "NO"],
  ["COc1ccc2c(c1)CN(C)CC2c1ccc(Cl)c(Cl)c1 (configuration not stated)", "SEM cells", "NO"],
  ["C=CC(=O)Nc1cc(NC(=O)c2ccc(C)c(NC(=O)c3ccno3)c2)cc(C(F)(F)F)c1", "SEM cells", "NO"],
  ["CC#CCn1c(N2CCC[C@@H](N)C2)nc2c1c(=O)n(Cc1nc(C)c3ccccc3n1)c(=O)n2C", "SEM cells", "NO"],
  ["COC1=CC=C(C(=C1)OC(C)C)C/2=N/[C@@H]([C@@H](N2C(=O)N3CCNC(=O)C3)C4=CC=C(Cl)C=C4)C5=CC=C(Cl)C=C5", "SEM cells", "YES"],
  ["Cc1coc2c1C(=O)C(=O)c1c-2ccc2c1CCCC2(C)C", "SEM cells", "NO"]
]}
